Test system: basophils
assayProcedure: Basophil activation in human whole blood (Flow2 CAST kit, CD63 positive cells)
Type: cell-based
measurementConditions: basophils activated with anti-FcεRI mAb or fMLP, geometric mean
Listed compounds paired with reported EC50

Consider the following illustrative entries.
compound	testResult
Cc1c(F)ccc(-n2c(C(C)Nc3nc(N)nc(N)c3C#N)nc3cccc(Cl)c3c2=O)c1C (single isomer, unassigned) [Compound 203a-1]	> 0.05 µM
Cc1c(F)ccc(-n2c(C(C)Nc3nc(N)nc(N)c3C#N)nc3cccc(Cl)c3c2=O)c1C (single isomer, unassigned) [Compound 203a-2]	0.01 to 0.05 µM
CC(Nc1nc(N)nc(N)c1Cl)c1cc2cccc(Cl)c2c(=O)n1-c1ccccc1 (single isomer, unassigned) [Compound 195a]	0.001 to 0.01 µM

Give me measured EC50, please, for this compound: Cc1ccc(C)c(-n2c(C(C)Nc3nc(N)nc(N)c3C#N)nc3cccc(Cl)c3c2=O)c1 (single isomer, unassigned) [Compound 191a-2]
0.001 to 0.01 µM

For Cc1ccc(C(F)F)cc1-n1c(C(C)Nc2nc(N)nc(N)c2C#N)nc2cccc(Cl)c2c1=O (single isomer, unassigned) [Compound 188a-2] , write its EC50.
< 0.001 µM

---

assayTarget: PI3Kδ (Homo sapiens)
Construct: made in house
Sequence (O00329 whole entry): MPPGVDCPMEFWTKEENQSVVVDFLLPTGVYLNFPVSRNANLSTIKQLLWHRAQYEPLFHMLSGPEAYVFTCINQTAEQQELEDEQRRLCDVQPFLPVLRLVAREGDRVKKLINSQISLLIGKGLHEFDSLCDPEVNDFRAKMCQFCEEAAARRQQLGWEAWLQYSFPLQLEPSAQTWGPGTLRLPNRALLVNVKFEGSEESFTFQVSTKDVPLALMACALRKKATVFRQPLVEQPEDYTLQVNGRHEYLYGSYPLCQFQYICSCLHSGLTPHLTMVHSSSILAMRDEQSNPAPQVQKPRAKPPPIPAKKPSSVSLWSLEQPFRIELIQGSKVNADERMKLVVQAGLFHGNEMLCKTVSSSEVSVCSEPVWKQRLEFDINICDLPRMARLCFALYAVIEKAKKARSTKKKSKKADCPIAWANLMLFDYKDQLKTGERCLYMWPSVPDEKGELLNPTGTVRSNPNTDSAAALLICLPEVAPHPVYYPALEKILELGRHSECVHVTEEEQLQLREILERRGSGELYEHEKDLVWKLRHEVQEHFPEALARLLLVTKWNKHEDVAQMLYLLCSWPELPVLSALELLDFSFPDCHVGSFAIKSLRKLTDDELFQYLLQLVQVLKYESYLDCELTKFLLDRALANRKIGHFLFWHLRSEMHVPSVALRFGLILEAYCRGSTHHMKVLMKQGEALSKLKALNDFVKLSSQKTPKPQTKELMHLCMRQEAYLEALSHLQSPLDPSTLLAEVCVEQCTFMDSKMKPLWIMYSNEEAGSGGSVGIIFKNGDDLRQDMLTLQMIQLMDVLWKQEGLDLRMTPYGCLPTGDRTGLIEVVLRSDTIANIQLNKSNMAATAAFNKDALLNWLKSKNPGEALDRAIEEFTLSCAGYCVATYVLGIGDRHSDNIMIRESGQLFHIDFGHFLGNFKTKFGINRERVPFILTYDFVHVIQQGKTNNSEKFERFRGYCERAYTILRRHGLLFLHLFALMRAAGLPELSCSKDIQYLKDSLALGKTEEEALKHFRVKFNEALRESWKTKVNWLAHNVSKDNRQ
Sequence (P27986 whole entry partner): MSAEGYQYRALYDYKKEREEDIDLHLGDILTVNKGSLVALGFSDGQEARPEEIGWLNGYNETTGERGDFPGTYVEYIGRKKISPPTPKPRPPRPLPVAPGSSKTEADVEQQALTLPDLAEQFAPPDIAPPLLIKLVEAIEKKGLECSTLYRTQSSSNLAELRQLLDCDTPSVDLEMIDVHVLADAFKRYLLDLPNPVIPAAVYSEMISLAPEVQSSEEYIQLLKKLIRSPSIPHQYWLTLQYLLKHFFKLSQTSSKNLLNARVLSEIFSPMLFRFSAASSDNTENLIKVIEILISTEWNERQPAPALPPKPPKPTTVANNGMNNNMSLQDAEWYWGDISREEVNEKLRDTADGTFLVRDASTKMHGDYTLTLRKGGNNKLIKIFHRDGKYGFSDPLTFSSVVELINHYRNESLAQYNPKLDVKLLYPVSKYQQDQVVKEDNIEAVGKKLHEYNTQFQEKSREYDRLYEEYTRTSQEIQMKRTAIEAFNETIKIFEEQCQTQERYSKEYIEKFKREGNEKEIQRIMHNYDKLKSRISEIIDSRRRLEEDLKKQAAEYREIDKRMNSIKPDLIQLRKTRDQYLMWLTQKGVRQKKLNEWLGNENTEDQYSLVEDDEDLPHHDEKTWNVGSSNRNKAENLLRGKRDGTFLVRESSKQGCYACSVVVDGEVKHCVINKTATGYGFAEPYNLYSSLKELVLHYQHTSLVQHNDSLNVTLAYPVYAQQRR
assayProcedure: Enzymatic activity of PI3K isoforms, TR-FRET assay (PIP3 formation)
Assay type: biochemical
measurementConditions: PI3Kδ; TR-FRET, 2×Km ATP, 10 μM PIP2; read-out: IC50
pIC50: −log10 of the molar value.
# maps each entry to its pIC50

Some solved cases for reference:
molecule	pIC50
CC(Nc1nc(N)nc(N)c1C#N)c1nc2cccc(C(N)=O)c2c(=O)n1-c1ccccc1 (single isomer, unassigned) [Compound 92a]	8.00 to 9.00
CC(Nc1nc(N)nc(N)c1C#N)c1nc2cccc(C(F)F)c2c(=O)n1-c1cc(F)cc(F)c1 (single isomer, unassigned) [Compound 52a]	8.00 to 9.00
CC(Nc1nc(N)nc(N)c1C#N)c1nc2cccc(Cl)c2c(=O)n1-c1c(F)cccc1F (single isomer, unassigned) [Compound 145a]	8.00 to 9.00
COCC(Nc1nc(N)nc(N)c1C#N)c1nc2cccc(Cl)c2c(=O)n1-c1cc(F)cc(F)c1 (single isomer, unassigned) [Compound 135a]	8.00 to 9.00
Cc1cccc2nc(C(C)Nc3nc(N)nc(N)c3C#N)n(-c3cc(F)cc(F)c3)c(=O)c12 (single isomer, unassigned) [Compound 18a]	> 9.00

Turning now to a further molecule:
Provide pIC50 value for the following molecule: CC(Nc1nc(N)nc(N)c1C#N)c1nc2cccc(S(C)(=O)=O)c2c(=O)n1-c1c(F)cccc1F (single isomer, unassigned) [Compound 146a]
8.00 to 9.00

---

Items are presented alongside their recorded half-life at 1 μM.
assayProcedure: Hepatocyte stability, 0.01% final DMSO, 1 μM substrate (t1/2^b)
Assay type: in vitro ADME
measurementConditions: human, hepatocytes, TA with 0.01% final DMSO, 1 μM substrate, samples at 0, 1, 3, 6 hours; read-out: human hepatocyte t½^b

Read the entry COc1cccc(-n2c(C(C)Nc3nc(N)nc(N)c3C#N)nc3cccc(Cl)c3c2=O)c1 (single isomer, unassigned) [Compound 185a] and write its reported half-life at 1 μM.
1 to 3 h

Output half-life at 1 μM of C[C@H](Nc1nc(N)nc(N)c1C#N)c1nc2cccc(F)c2c(=O)n1-c1cccc(C(F)F)c1 [Compound 121a]
3 to 6 h

For the compound CC(Nc1nc(N)nc(N)c1C#N)c1nc2c(Cl)cccc2c(=O)n1-c1ccccc1 (single isomer, unassigned) [Compound 22a] , report half-life at 1 μM.
> 10 h

---

assayProcedure: Hepatocyte stability, 0.01% final DMSO, 1 μM substrate (t1/2^b)
Format: in vitro ADME
measurementConditions: human, hepatocytes, TA with 0.01% final DMSO, 1 μM substrate, samples at 0, 1, 3, 6 hours; read-out: human hepatocyte t½^b
quantityName: half-life at 1 μM

Solved cases below.
compound	testResult
Cc1ccc(F)c2c(=O)n(-c3ccccc3)c(C(C)Nc3nc(N)nc(N)c3C#N)nc12 (single isomer, unassigned) [Compound 61a]	180 to 360 min
CCC(Nc1nc(N)nc(N)c1C#N)c1nc2c(F)ccc(F)c2c(=O)n1-c1cccc(F)c1 (single isomer, unassigned) [Compound 151a]	180 to 360 min
COc1cccc(-n2c(C(C)Nc3nc(N)nc(N)c3C#N)nc3cccc(Cl)c3c2=O)c1C (single isomer, unassigned) [Compound 109a-2]	60 to 180 min

Please turn your attention to the following entry.
# return recorded half-life at 1 μM for entry CC[C@H](Nc1nc(N)nc(N)c1C#N)c1nc2cccc(F)c2c(=O)n1-c1cc(F)cc(F)c1 [Compound 77a]
60 to 180 min

---

assayProcedure: Hepatocyte stability, 0.01% final DMSO, 1 μM substrate (t1/2^b)
Format: in vitro ADME
measurementConditions: human, hepatocytes, TA with 0.01% final DMSO, 1 μM substrate, samples at 0, 1, 3, 6 hours; read-out: human hepatocyte t½^b
quantityName: half-life at 1 μM

Recorded half-life at 1 μM, per entry:
compound	half-life at 1 μM
CCC(Nc1nc(N)nc(N)c1C#N)c1nc2ccccc2c(=O)n1-c1cc(F)cc(F)c1 (single isomer, unassigned) [Compound 36a]	> 10 h
CC(Nc1nc(N)nc(N)c1C#N)c1nc2c(C#N)cccc2c(=O)n1-c1cc(F)cc(F)c1 (single isomer, unassigned) [Compound 101a]	3 to 6 h
CC(Nc1nc(N)nc(N)c1C#N)c1nc2c(F)cccc2c(=O)n1-c1cc(F)cc(F)c1 (single isomer, unassigned) [Compound 16a]	3 to 6 h
COc1cc(C(F)F)cc(-n2c(C(C)Nc3nc(N)nc(N)c3C#N)nc3cccc(Cl)c3c2=O)c1 (single isomer, unassigned) [Compound 190a]	1 to 3 h
CC(Nc1nc(N)nc(N)c1C#N)c1nc2cccc(F)c2c(=O)n1-c1cccc(F)c1 (single isomer, unassigned) [Compound 182a]	> 10 h
CC(Nc1nc(N)nc(N)c1C#N)c1nc2ccc(F)c(F)c2c(=O)n1-c1cc(F)cc(F)c1 (single isomer, unassigned) [Compound 29a]	> 10 h

Respond only with half-life at 1 μM recorded for CC(Nc1nc(N)nc(N)c1C#N)c1nc2ccc(F)cc2c(=O)n1-c1cccc(C#N)c1 (single isomer, unassigned) [Compound 13a]
> 10 h

Give the reported value of half-life at 1 μM for this record: CC(Nc1nc(N)nc(N)c1C#N)c1nc2ccc(F)cc2c(=O)n1-c1cc(F)cc(F)c1 (single isomer, unassigned) [Compound 11a]
6 to 10 h

Read off the recorded half-life at 1 μM for CC(Nc1nc(N)nc(N)c1C#N)c1nc2cccc(Cl)c2c(=O)n1-c1cccc(C#N)c1 (single isomer, unassigned) [Compound 12a]
> 10 h

Recall and state the measured half-life at 1 μM for CC(Nc1nc(N)nc(N)c1C#N)c1nc2cccc(F)c2c(=O)n1-c1cc(Cl)cc(Cl)c1 (single isomer, unassigned) [Compound 42a] .
1 to 3 h

Please give measured half-life at 1 μM of the following entry: CC(Nc1nc(N)nc(N)c1C#N)c1nc2cccc(C(N)=O)c2c(=O)n1-c1cc(F)cc(F)c1 (single isomer, unassigned) [Compound 91a]
> 10 h

Supply reported half-life at 1 μM belonging to this compound: CC(Nc1nc(N)nc(N)c1C#N)c1nc2c(F)ccc(F)c2c(=O)n1-c1cc(F)cc(F)c1 (single isomer, unassigned) [Compound 21a]
3 to 6 h

---

assayProcedure: Hepatocyte stability, 0.01% final DMSO, 1 μM substrate (t1/2^b)
Assay type: in vitro ADME
measurementConditions: human, hepatocytes, TA with 0.01% final DMSO, 1 μM substrate, samples at 0, 1, 3, 6 hours; read-out: human hepatocyte t½^b
Here, each record is paired with measured half-life at 1 μM data.

Before answering, review these 5 worked examples.
molecule	half-life at 1 μM
CC(Nc1nc(N)nc(N)c1C#N)c1nc2cccc(F)c2c(=O)n1-c1cccc(C(F)F)c1 (single isomer, unassigned) [Compound 97a]	180 to 360 min
C[C@H](Nc1nc(N)nc(N)c1C#N)c1nc2c(C#N)cc(F)cc2c(=O)n1-c1cccc(F)c1 [Compound 154a]	> 600 min
CC(Nc1nc(N)nc(N)c1C#N)c1nc2cccc(Cl)c2c(=O)n1-c1cccc(Cl)c1 (single isomer, unassigned) [Compound 8a]	180 to 360 min
CC(Nc1nc(N)nc(N)c1C#N)c1nc2cccc(C#N)c2c(=O)n1-c1cc(F)cc(F)c1 (single isomer, unassigned) [Compound 112a]	> 600 min
C[C@H](Nc1nc(N)nc(N)c1C#N)c1nc2cccc(Cl)c2c(=O)n1-c1cc(F)cc(F)c1 [Compound 1a]	60 to 180 min

Proceeding to the next molecule to report its half-life at 1 μM.
Annotate the molecule CCC(Nc1nc(N)nc(N)c1C#N)c1nc2c(F)ccc(F)c2c(=O)n1-c1cc(F)cc(F)c1 (single isomer, unassigned) [Compound 27a] with its measured half-life at 1 μM.
60 to 180 min
